Experiment: recombinant UMI read abundance after kanamycin selection (control-corrected) (log10(CPM+1)); higher = more efficient recombination; extreme values may be limits of the assay; sequences stand for … in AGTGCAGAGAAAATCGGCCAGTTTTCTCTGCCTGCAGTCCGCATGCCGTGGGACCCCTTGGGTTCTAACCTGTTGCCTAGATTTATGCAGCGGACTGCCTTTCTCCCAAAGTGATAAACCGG…AGGTTGGTTTCACT; site = the 11-nt donor;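 note: IS621 bridge recombinase in Escherichia coli cells against a fixed T5 target plasmid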
measured-metric: recombinant UMI read abundance (log10)
// no unit, no text: just the number

Past entries and their recorded results:
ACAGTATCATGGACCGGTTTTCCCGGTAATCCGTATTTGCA (site ACACCATCTTG) : 0.786
TATACACCATGGACCGGTTTTCCCGGTAATCCGTATTTGAC (site TATACACCTGT) : 0
ACTGTGTCATGGACCGGTTTTCCCGGTAATCCGTATTTGAC (site AATGTGTCTGT) : 0

INPUT: Fill blank: measured recombinant UMI read abundance (log10) of the sequence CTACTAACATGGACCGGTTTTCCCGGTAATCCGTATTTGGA (site ATACTAACTTC) is ____.
OUTPUT: 0.387

INPUT: What value of measured recombinant UMI read abundance (log10) is listed for GCCACGGCATGGACCGGTTTTCCCGGTAATCCGTATTTGTA (site GCCACGACTTA) ?
OUTPUT: 1.24

INPUT: Query: recombinant UMI read abundance (log10); subject: CACGGCCCATGGACCGGTTTTCCCGGTAATCCGTATTTGTG (site CACGGCCCTAA)
OUTPUT: 0.0211

INPUT: // query recombinant UMI read abundance (log10) value for entry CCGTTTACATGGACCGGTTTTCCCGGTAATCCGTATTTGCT (site CCATTTACTAG)
OUTPUT: 0

---

Listed here are sequences together with their documented recombinant UMI read abundance (log10).
Experiment: recombinant UMI read abundance after kanamycin selection (control-corrected) (log10(CPM+1)); higher = more efficient recombination; extreme values may be limits of the assay; sequences stand for … in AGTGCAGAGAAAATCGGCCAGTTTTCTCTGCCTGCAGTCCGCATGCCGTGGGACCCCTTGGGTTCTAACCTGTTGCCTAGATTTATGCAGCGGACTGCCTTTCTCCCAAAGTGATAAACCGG…AGGTTGGTTTCACT; site = the 11-nt donor
Please respond with just the number, no unit label.

// worked examples, recombinant UMI read abundance (log10) included
TAGCTACCATGGACCGGTTTTCCCGGTAATCCGTATTTGAA (site TAGCTATCTTT) : 0.784
CCTAATTCATGGACCGGTTTTCCCGGTAATCCGTATTTGGC (site CCTAATACTGC) : 0
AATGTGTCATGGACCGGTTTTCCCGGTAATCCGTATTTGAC (site AATGGGTCTGT) : 0

INPUT: Which recombinant UMI read abundance (log10) is reported for this sequence? CGTTTTGCATGGACCGGTTTTCCCGGTAATCCGTATTTGCT (site CGTTTCGCTAG)
OUTPUT: 0

INPUT: Any idea what its recombinant UMI read abundance (log10) is? The sequence is CGTTTGGCATGGACCGGTTTTCCCGGTAATCCGTATTTGTT (site CGTTTGGCTAC)
OUTPUT: 0.0131

INPUT: Dear colleague, I am looking for the recorded recombinant UMI read abundance (log10) of the following sequence: TGTTCCCCATGGACCGGTTTTCCCGGTAATCCGTATTTGTG (site TGTTCCCCTGA)
OUTPUT: 0

INPUT: # recombinant UMI read abundance (log10) lookup, item TATTGGACATGGACCGGTTTTCCCGGTAATCCGTATTTGAC (site AATTGGACTGT)
OUTPUT: 0

---

Experiment: recombinant UMI read abundance after kanamycin selection (control-corrected) (log10(CPM+1)); higher = more efficient recombination; extreme values may be limits of the assay; sequences stand for … in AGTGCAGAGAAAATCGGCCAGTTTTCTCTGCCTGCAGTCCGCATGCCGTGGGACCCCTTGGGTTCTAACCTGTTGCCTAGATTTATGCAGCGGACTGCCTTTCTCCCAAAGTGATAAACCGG…AGGTTGGTTTCACT; site = the 11-nt donor
Use 0.8 as the dividing line for recombinant UMI read abundance (log10), with the line itself on the 1 (yes) side and lower values as 0 (no).

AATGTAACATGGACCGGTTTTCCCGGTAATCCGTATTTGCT (site AATGTAACTAG) : 1 (yes)
AGTCTAGCATGGACCGGTTTTCCCGGTAATCCGTATTTGTT (site AGACTAGCTAA) : 0 (no)

INPUT: Please indicate if the recorded recombinant UMI read abundance (log10) for GTCAGAACATGGACCGGTTTTCCCGGTAATCCGTATTTGGC (site GTGAGAACTGC) meets or exceeds 0.8.
OUTPUT: 0 (no)

INPUT: Answer whether recombinant UMI read abundance (log10) of TAGTTAGCATGGACCGGTTTTCCCGGTAATCCGTATTTGAA (site TAGATAGCTTT) is greater than or equal to 0.8.
OUTPUT: 0 (no)

INPUT: Answer whether recombinant UMI read abundance (log10) of ATCCAAGCATGGACCGGTTTTCCCGGTAATCCGTATTTGAA (site ATCCAAGCTGT) is greater than or equal to 0.8.
OUTPUT: 0 (no)

INPUT: Please indicate if the recorded recombinant UMI read abundance (log10) for GCTCCTGCATGGACCGGTTTTCCCGGTAATCCGTATTTGCC (site GCTACTGCTGG) meets or exceeds 0.8.
OUTPUT: 1 (yes)

INPUT: Determine whether measured recombinant UMI read abundance (log10) meets or exceeds 0.8 for CATGTTCCATGGACCGGTTTTCCCGGTAATCCGTATTTGTT (site CATGTTCCTAA)
OUTPUT: 0 (no)

INPUT: Determine whether measured recombinant UMI read abundance (log10) meets or exceeds 0.8 for CACGACCCATGGACCGGTTTTCCCGGTAATCCGTATTTGTT (site CACGTCCCTAA)
OUTPUT: 0 (no)

INPUT: Confirm if recombinant UMI read abundance (log10) reported for the sequence AATTGGACATGGACCGGTTTTCCCGGTAATCCGTATTTGAC (site CATTGGACTGT) is 0.8 or above.
OUTPUT: 1 (yes)

---

Assay: recombinant UMI read abundance after kanamycin selection (control-corrected) (log10(CPM+1)); higher = more efficient recombination; extreme values may be limits of the assay; sequences stand for … in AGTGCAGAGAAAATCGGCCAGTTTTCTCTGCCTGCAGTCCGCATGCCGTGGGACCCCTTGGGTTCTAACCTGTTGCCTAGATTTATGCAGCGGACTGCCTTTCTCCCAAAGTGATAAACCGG…AGGTTGGTTTCACT; site = the 11-nt donor
measured-metric: recombinant UMI read abundance (log10)
Output: the number by itself.

// below: answered sequences
GGTACGTCATGGACCGGTTTTCCCGGTAATCCGTATTTGTC (site GGTACGTCTAA) : 0.0158
TGTAGCTCATGGACCGGTTTTCCCGGTAATCCGTATTTGAA (site TGTAGCTCTTT) : 0.301

INPUT: Any idea what recombinant UMI read abundance (log10) was measured for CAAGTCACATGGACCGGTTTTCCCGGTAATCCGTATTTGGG (site CAAGTCACTCT) ?
OUTPUT: 0.593

INPUT: # get_value(readout='recombinant UMI read abundance (log10)', item= GGTGTGGCATGGACCGGTTTTCCCGGTAATCCGTATTTGGT (site GGCGTGGCTAC) )
OUTPUT: 0.0168

INPUT: What recombinant UMI read abundance (log10) value was documented for this sequence, TGCTAGGCATGGACCGGTTTTCCCGGTAATCCGTATTTGGC (site TGCTAGGCTCC) ?
OUTPUT: 0.013

INPUT: Looking for the measured recombinant UMI read abundance (log10) of AGATCATCATGGACCGGTTTTCCCGGTAATCCGTATTTGCT (site AGATCATCTAG) , can you help?
OUTPUT: 1.56

INPUT: Fill blank: measured recombinant UMI read abundance (log10) of the sequence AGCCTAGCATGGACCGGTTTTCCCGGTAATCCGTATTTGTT (site AGCTTAGCTAA) is ____.
OUTPUT: 0.0228

INPUT: Quick check: recombinant UMI read abundance (log10) of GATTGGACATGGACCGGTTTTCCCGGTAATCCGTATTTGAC (site GATTCGACTGT) ?
OUTPUT: 0

INPUT: What measured recombinant UMI read abundance (log10) goes with CGGGATCCATGGACCGGTTTTCCCGGTAATCCGTATTTGTA (site CGGAATCCTAA) ?
OUTPUT: 0

INPUT: Sample TGGGAATCATGGACCGGTTTTCCCGGTAATCCGTATTTGCG (site TAGGAATCTCG) — what was its recombinant UMI read abundance (log10)?
OUTPUT: 1.35

INPUT: Quick one: recombinant UMI read abundance (log10) for CTGTCTCCATGGACCGGTTTTCCCGGTAATCCGTATTTGAG (site CTGTCTCCTCT) ?
OUTPUT: 0.0686

INPUT: Need recombinant UMI read abundance (log10), item CAGTCAACATGGACCGGTTTTCCCGGTAATCCGTATTTGGG (site CAGTCAACTCC)
OUTPUT: 0.146
